method: Solubility in PBS
Format: physicochemical
observed property: Solubility
Provide a numeric answer, followed by its unit.

Reference set (4 entries):
CC[C@H](C)[C@@H]1NC(=O)[C@H](CC(=O)O)NC(=O)[C@]2(CC=CCCCC3(CCCC=CCCCCCC[C@@](C)(C(=O)N[C@@H](Cc4ccccc4)C(=O)N[C@@H](Cc4csc5ccccc45)C(=O)N[C@@H](Cc4c[nH]c5ccccc45)C(N)=O)NC(=O)[C@H](CCC(N)=O)NC(=O)[C@H](Cc4ccccc4)NC(=O)[C@H](C)NC(=O)[C@H](C)NC(=O)[C@H](CCC(=O)O)NC(=O)[C@H](CC(=O)O)NC3=O)NC1=O)CCCN2C(C)=O (some centres unmarked) [I-644] : 22 µM
CC(=O)N1CCC[C@]12CC=CCCCC1(CCCC=CCCCCCC[C@@](C)(C(=O)N[C@@H](Cc3ccccc3)C(=O)N[C@@H](Cc3csc4ccccc34)C(=O)N[C@@H](CO)C(N)=O)NC(=O)[C@H](CC(N)=O)NC(=O)[C@H](Cc3ccccc3)NC(=O)[C@H](C)NC(=O)[C@H](C)NC(=O)[C@H](CCC(=O)O)NC(=O)[C@H](CC(=O)O)NC1=O)NC(=O)[C@H](CC(C)C)NC(=O)[C@H](CC(=O)O)NC2=O (some centres unmarked) [I-750] : 48 µM
CC[C@H](C)[C@@H]1NC(=O)[C@H](CC(=O)O)NC(=O)[C@]2(CC=CCCCC3(CCCC=CCCCCCC[C@@](C)(C(=O)N[C@@H](Cc4ccccc4)C(=O)N[C@@H](Cc4csc5ccccc45)C(=O)N[C@@H](CCC(N)=O)C(N)=O)NC(=O)[C@H](CCC(N)=O)NC(=O)[C@H](Cc4ccccc4)NC(=O)[C@H](C)NC(=O)[C@H](Cc4ccccc4)NC(=O)[C@H](CCC(=O)O)NC(=O)[C@H](CC(=O)O)NC3=O)NC1=O)CCCN2C(C)=O (some centres unmarked) [I-649] : 41 µM
CC(=O)N1CCC[C@]12CC=CCCCC1(CCCC=CCCCCCC[C@@](C)(C(=O)N[C@@H](Cc3ccccc3)C(=O)N[C@@H](Cc3csc4ccccc34)C(N)=O)NC(=O)[C@H](CC(N)=O)NC(=O)[C@H](Cc3ccccc3)NC(=O)[C@H](C)NC(=O)[C@H](C)NC(=O)[C@H](CCC(=O)O)NC(=O)[C@H](CC(=O)O)NC1=O)NC(=O)[C@H](CC(C)C)NC(=O)[C@H](CC(=O)O)NC2=O (some centres unmarked) [I-625] : 47 µM

Q: Identify the reported Solubility for the following entry. CC(=O)N1CCC[C@]12CC=CCCCC1(CCCC=CCCCOC(=O)N3CC[C@@](C(=O)N[C@@H](Cc4ccsc4)C(=O)N[C@@H](Cc4csc5ccccc45)C(=O)N[C@@H](CCC(N)=O)C(N)=O)(C3)NC(=O)[C@H](CC(C)C)NC(=O)[C@H](Cc3ccc(C#N)cc3)NC(=O)[C@H](C)NC(=O)[C@H](C)NC(=O)[C@H](CC(=O)O)NC(=O)[C@H](CC(=O)O)NC1=O)NC(=O)[C@H](CC(C)(C)C)NC(=O)[C@H](CC(=O)O)NC2=O (some centres unmarked)
Result: 50 µM
